Biological target: PLK4 (h) (Homo sapiens)
Sequence (O00444 whole entry): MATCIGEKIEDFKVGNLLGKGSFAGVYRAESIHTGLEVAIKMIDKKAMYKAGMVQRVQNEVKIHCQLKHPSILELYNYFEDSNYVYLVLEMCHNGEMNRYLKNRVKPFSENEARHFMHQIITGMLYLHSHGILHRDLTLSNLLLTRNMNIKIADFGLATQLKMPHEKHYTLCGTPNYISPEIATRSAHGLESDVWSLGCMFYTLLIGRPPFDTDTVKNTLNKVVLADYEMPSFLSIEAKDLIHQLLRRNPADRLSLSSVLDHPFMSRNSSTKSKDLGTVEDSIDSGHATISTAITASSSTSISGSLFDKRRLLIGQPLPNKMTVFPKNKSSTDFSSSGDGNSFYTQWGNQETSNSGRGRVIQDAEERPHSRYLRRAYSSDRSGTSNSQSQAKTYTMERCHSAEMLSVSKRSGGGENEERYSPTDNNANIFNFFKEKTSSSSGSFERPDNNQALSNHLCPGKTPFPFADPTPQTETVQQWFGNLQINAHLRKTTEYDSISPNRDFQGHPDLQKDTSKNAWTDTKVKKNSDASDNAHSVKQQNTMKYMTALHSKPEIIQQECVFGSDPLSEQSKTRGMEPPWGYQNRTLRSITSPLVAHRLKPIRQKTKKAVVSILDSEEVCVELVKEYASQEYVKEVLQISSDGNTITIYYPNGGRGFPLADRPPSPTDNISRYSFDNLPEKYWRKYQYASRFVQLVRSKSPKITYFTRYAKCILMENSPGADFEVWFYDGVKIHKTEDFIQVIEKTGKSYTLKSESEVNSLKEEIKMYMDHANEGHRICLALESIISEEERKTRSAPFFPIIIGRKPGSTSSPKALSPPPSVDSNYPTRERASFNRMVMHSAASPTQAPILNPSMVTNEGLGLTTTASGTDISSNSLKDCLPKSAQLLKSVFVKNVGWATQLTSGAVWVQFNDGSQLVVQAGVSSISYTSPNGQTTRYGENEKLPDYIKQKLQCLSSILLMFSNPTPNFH
Assay: PLK-4 human kinase inhibition, scintillation proximity assay (SPA)
Assay type: biochemical
Conditions: read-out: PLK4 pIC50 (converted)
Procedure: In the SPA technology the activity of the kinase of interest is measured using an appropriate biotinylated substrate that is incubated with the aforementioned kinase protein in the presence of (^33P) radiolabeled ATP. (^33P) Phosphorylation of the substrate is subsequently measured through binding of the phosphorylated substrate to streptavidine coated beads that are based on the scintillant poly(vinyl toluene) (PVT-Beads). The scintillation intensity is detected by imaging on Leadseeker. […]
Readout label: IC50 (nM)

# count of solved cases: 5
>  <Entry smiles>
CN1CCNC(=O)[C@H](CO)NCc2cc(cc(N3CCOCC3)c2)Nc2nccc(n2)-c2ccc(cc2)C1

>  <Units label>
nM

>  <IC50>
603

$$$$
>  <Entry smiles>
COc1ccc2cc1CN(C)CCNC(=O)CN1CCN(CC1)Cc1cc(NCCc3ccccc3)cc(c1)Nc1nccc-2n1

>  <Units label>
nM

>  <IC50>
2140

$$$$
>  <Entry smiles>
O=C1NCc2ccc(cc2)-c2ccnc(n2)Nc2ccc(N3CCOCC3)c(c2)CN2CCC1CC2

>  <Units label>
nM

>  <IC50>
490

$$$$
>  <Entry smiles>
CN1CCCNC(=O)CN2CCN(CC2)Cc2cccc(c2)Nc2nccc(n2)-c2ccc(cc2)C1

>  <Units label>
nM

>  <IC50>
3550

$$$$
>  <Entry smiles>
CN1CCCNC(=O)[C@@H]2CCCN2Cc2cc(cc(N3CCOCC3)c2)Nc2nccc(n2)-c2ccc(cc2)C1

>  <Units label>
nM

>  <IC50>
617

$$$$

A: O=C1NCc2cccc(c2)-c2ccnc(n2)Nc2cc(ccc2Cl)CN2CCC1CC2
B: O=C(NC1CCOCC1)c1cc2cc(c1)Nc1nccc(n1)-c1cccc(c1)CNC(=O)[C@@H]1CCCN1C2
Ask: Which has the smaller recorded IC50, A or B ? Answer format: the label of the selected item.
Reply: B
(B: 245 nM, A: 8130 nM)
